MEASURED ON: RIPK2 enzyme (Homo sapiens, UniProt O43353)
Construct: purchased Carna 09-128
Sequence (O43353 1-299 limits assumed): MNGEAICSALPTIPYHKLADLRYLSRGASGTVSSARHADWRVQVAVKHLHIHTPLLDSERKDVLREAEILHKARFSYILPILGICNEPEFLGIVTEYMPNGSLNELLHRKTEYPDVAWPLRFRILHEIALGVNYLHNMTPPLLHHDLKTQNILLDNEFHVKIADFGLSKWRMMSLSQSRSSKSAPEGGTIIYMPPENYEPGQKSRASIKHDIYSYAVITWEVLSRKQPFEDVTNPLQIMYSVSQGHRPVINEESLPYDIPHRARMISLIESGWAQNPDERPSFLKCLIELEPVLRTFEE
METHOD DESCRIPTION: RIPK2 inhibition (ADP-Glo Kinase Assay)
Type: biochemical
TEST CONTEXT: RIPK2 5 nM, ATP 150 μM, MBP substrate, read-out: RIPK2 IC50
pIC50: −log10 of the molar value.
ASSAY ENDPOINT: pIC50

Given the compound Cn1nc(NC(=O)Cc2ccc(Oc3ccnc4ccc(S(C)(=O)=O)cc34)cc2F)cc1C(C)(C)C [Compound 40] , write its reported pIC50.
> 8.60

Given the compound Cc1c(Oc2ccnc3ccc(C(=O)NCC(F)(F)F)cc23)ccc(CC(=O)Nc2cnn(C(C)(C)C)c2)c1F [Compound 337] , write its reported pIC50.
> 8.60

====

MEASURED ON: RIPK2 and XIAP protein-protein interaction (Homo sapiens, UniProt O43353)
Construct: the N-terminus of full-length RIPK2 was appended with the HaloTag fusion protein
Sequence (O43353 whole entry, the tested form may be a part): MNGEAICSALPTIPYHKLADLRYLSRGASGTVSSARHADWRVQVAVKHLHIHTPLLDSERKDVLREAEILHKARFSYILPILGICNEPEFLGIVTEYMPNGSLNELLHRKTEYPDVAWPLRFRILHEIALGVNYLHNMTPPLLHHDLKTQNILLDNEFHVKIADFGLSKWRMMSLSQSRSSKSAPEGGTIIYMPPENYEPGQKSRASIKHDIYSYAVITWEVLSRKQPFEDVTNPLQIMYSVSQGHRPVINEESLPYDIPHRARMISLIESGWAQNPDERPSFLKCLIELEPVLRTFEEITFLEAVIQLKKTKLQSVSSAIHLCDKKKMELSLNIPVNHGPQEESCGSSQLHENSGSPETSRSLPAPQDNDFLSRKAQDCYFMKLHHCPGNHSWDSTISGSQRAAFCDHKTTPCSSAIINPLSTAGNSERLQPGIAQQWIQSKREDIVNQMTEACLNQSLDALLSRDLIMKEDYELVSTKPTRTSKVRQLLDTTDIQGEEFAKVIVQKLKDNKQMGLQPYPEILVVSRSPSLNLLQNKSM
METHOD DESCRIPTION: Inhibition of the interaction of RIPK2 with XIAP (NanoBRET in HEK293T cells)
TEST CONTEXT: RIPK2 HaloTag / XIAP NanoLuc, read-out: NanoBRET Scaffolding IC50
pIC50: −log10 of the molar value.
ASSAY ENDPOINT: pIC50

[1] Cc1cc(CC(=O)Nc2cnn(C(C)(C)C)c2)c(F)cc1Oc1ccnc2ccc(S(=N)(=O)C3CC3)cc12 (single isomer, unassigned) [Compound 467]
[2] CCS(=N)(=O)c1ccc2nccc(Oc3ccc(CC(=O)Nc4cnn(C(C)(C)C)c4)cc3C)c2c1 (single isomer, unassigned) [Compound 546]
[3] Cc1cc(CC(=O)Nc2cnn(C(C)(C)C)c2)c(F)cc1Oc1ccnc2ccc(-c3nccnc3C)cc12
[4] Cc1c(Oc2ccnc3ccc(S(=O)(=O)C4CC4)cc23)ccc(CC(=O)Nc2cnn(C(C)(C)C)c2)c1F
[5] Cc1c(Oc2ccnc3ccc(S(C)(=O)=O)cc23)ccc(CC(=O)Nc2cnn(C(C)(C)C)c2)c1F
Ranking by pIC50 (descending) is requested for the entries above. Answer with the labels in sequence, matching the requested order.
4, 5, 1, 3, 2
(4: 8.30, 5: 7.92, 1: 7.52, 3: 7.28, 2: 6.69)

====

MEASURED ON: RIPK2 and XIAP protein-protein interaction (Homo sapiens, UniProt O43353)
Construct: the N-terminus of full-length RIPK2 was appended with the HaloTag fusion protein
METHOD DESCRIPTION: Inhibition of the interaction of RIPK2 with XIAP (NanoBRET in HEK293T cells)
TEST CONTEXT: RIPK2 HaloTag / XIAP NanoLuc, read-out: NanoBRET Scaffolding IC50
ASSAY ENDPOINT: IC50 (nM)

Example entries begin here.
COMPOUND	READING UNIT	IC50
CCS(=O)(=O)c1ccc2nccc(Oc3ccc(CC(=O)Nc4cnn(C(C)(C)C)c4)cc3C)c2c1 [Compound 99]	nM	15
[2H]C([2H])([2H])NC(=O)c1ccc2nccc(Oc3cc(F)c(CC(=O)Nc4cnn(C56CC(C5)C6)c4)cc3C)c2c1 (single isomer, unassigned) [Compound 563]	nM	176
Cc1cc(CC(=O)Nc2cnn(C(C)(C)C)c2)c(F)cc1Oc1ccnc2cc(C)c(S(C)(=O)=O)cc12 [Compound 496]	nM	127
CN1CCC(Oc2ccc3ncnc(Oc4cnc(CC(=O)Nc5cnn(C(C)(C)C)c5)c(F)c4)c3c2)CC1 [Compound 20]	nM	144
CC1(NC(=O)c2ccc3nccc(Oc4cc(F)c(CC(=O)Nc5cnn(C(C)(C)C)c5)cc4Cl)c3c2)CC1 [Compound 517]	nM	311

[A] Cc1cc(CC(=O)Nc2noc(C(C)(C)C)n2)ccc1Oc1ccnc2ccc(S(C)(=O)=O)cc12 [Compound 182]
[B] Cc1cc(CC(=O)Nc2cnn(C(C)(C)C)c2)cc(Cl)c1Oc1ccnc2ccc(S(C)(=O)=O)cc12 [Compound 473]
[C] COc1ccc2ncnc(Oc3ccc(CC(=O)Nc4cnn(C(C)(C)C)c4)c(F)c3)c2c1 [Compound 8]
[D] Cc1cc(CC(=O)Nc2cnn(C(C)(C)C)c2)ccc1Oc1ccnc2ccc(S(=N)(=O)C3CCC3)cc12 (single isomer, unassigned) [Compound 551]
Falling order of IC50, please. Answer with the labels in sequence, matching the requested order.
B, D, A, C

[I] CC(C)(C)n1cc(NC(=O)Cc2ccc(Oc3ccnc4ccc(S(C)(=O)=O)cc34)c(C(F)F)c2)cn1 [Compound 92]
[II] Cc1cc(CC(=O)Nc2cnn(C(C)(C)C)c2)c(F)cc1Oc1ccnc2cc(F)c(C(N)=O)cc12 [Compound 465]
Consider entries I and II . Which has the numerically lower IC50? Return value: the label identifying the chosen record.
II
(II: 4.2 nM, I: 132 nM)
